Listing: z-score of selected compounds
target: Homeobox protein Hox-A13 (Mus musculus) (UniProt Q62424); experiment: inhibitors of HoxA13-DNA binding, primary screen, biochemical, fluorescence polarization, labeled oligonucleotide (AID 1185); conditions: 15 min, higher = more signal, called active from +8 up or from −8 down
Sequence (Q62424 whole entry, looked up): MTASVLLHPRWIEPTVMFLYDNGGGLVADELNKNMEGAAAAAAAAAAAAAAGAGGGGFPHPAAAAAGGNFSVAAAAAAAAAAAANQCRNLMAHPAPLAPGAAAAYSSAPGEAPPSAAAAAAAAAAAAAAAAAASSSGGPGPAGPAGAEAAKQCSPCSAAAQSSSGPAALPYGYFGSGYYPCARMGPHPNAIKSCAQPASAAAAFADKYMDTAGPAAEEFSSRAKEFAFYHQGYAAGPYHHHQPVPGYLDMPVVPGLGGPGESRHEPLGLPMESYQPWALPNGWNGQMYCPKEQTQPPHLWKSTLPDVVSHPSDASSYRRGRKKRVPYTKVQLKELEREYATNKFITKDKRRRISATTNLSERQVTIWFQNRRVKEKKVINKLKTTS
attribute measured: z-score

- compound: "C[N+](C)(C)CCCCCCNC(=O)[C@H]1C[C@H]2C(=O)N[C@@H](Cc3ccccc3)C(=O)N2[C@H]1c1ccc(O)cc1"
  value: -3.23
- compound: "COCCOC(=O)N1C(=O)[C@@]2(c3ccccc31)[C@H](C(=O)N1CCN(c3ncccn3)CC1)[C@H]1C(=O)O[C@H](c3ccccc3)[C@H](c3ccccc3)N1[C@@H]2c1ccc(O)cc1"
  value: -0.883
- compound: "C=CCN1C(=O)[C@@]2(O[C@@H](CCn3cc([C@H](O)c4ccccc4)nn3)[C@H]([Si](C)(C)c3ccc(OC)cc3)[C@H]2C)c2cc(N3CCC3=O)ccc21"
  value: -5.38
- compound: "COCCOC(=O)N1C(=O)[C@@]2(c3cc(C#CC4=CCCCC4)ccc31)[C@H](c1ccccc1OCCO)N1[C@H](c3ccccc3)[C@H](c3ccccc3)OC(=O)[C@H]1[C@@H]2C(=O)N1CCCCCCC1"
  value: 4.13
- compound: "O=C1OCC=C[C@H]2OC34C=CCN(c5ccc(Cl)cc5)C(=O)[C@H]3N(CCO)C(=O)[C@@H]4[C@@H]12 (stereo partly drawn)"
  value: -2.74
- compound: "COc1ccc(NC(=O)O[C@H]2[C@H](OC(=O)Nc3ccccc3)[C@H](OC(=O)Nc3ccccc3)[C@@H](OC)O[C@@H]2CO)cc1"
  value: -6.24
- compound: "COCCOC(=O)N1C(=O)[C@@]2(c3cc(C#CCC(C(=O)OC)C(=O)OC)ccc31)[C@H](C(=O)N1CCc3cc(OC)c(OC)cc3C1)[C@H]1C(=O)O[C@H](c3ccccc3)[C@H](c3ccccc3)N1[C@@H]2c1ccc(OCCO)cc1"
  value: 3.49
- compound: "C=CCC(OC(C)=O)[C@@H]1[C@@H](N(Cc2ccc(-c3cccc(C(F)(F)F)c3)o2)C(=O)c2ccc(C)cc2)c2cc(OCCCO)ccc2N1C(=O)c1ccc2ccccc2c1 (stereo partly drawn)"
  value: -0.683
- compound: "Cc1ccc(S[C@]2(C(=O)O)CC(=O)N(C3Cc4ccccc4C3)[C@@H]2c2ccc(CO)cc2)cc1"
  value: -3.97
- compound: "O=C1OCCC/C=C\\[C@H]2OC34C=CCN(CCN5CCOCC5)C(=O)[C@H]3N(CCCCCCO)C(=O)[C@@H]4C12 (stereo partly drawn)"
  value: -6.22
- compound: "COC(=O)[C@@]1(Cc2ccccc2)[C@@H]2C(=CC(=O)[C@H]2CC(=O)C(=O)N(C)C)CN1C(=O)c1ccccc1"
  value: -3.77
- compound: "[N-]=[N+]=Nc1ccccc1C[C@]1(C(=O)N2CCOCC2)N=C(c2ccc(OCCCO)cc2)O[C@H]1c1ccccc1"
  value: -5.32
- compound: "O=C1O[C@H](c2ccccc2)[C@H](c2ccccc2)N2[C@H]1[C@@H](C(=O)NC[C@H](O)c1ccccc1)[C@]1(C(=O)Nc3ccc(C#CCCO)cc31)[C@H]2c1ccc(OCCO)cc1"
  value: -3.46
